Cited source: ChEMBL document CHEMBL1147965

Kindly state IC50 for each of the entries shown.
# Target System: Epidermal growth factor receptor (Homo sapiens)
# Sequence (P00533 whole entry): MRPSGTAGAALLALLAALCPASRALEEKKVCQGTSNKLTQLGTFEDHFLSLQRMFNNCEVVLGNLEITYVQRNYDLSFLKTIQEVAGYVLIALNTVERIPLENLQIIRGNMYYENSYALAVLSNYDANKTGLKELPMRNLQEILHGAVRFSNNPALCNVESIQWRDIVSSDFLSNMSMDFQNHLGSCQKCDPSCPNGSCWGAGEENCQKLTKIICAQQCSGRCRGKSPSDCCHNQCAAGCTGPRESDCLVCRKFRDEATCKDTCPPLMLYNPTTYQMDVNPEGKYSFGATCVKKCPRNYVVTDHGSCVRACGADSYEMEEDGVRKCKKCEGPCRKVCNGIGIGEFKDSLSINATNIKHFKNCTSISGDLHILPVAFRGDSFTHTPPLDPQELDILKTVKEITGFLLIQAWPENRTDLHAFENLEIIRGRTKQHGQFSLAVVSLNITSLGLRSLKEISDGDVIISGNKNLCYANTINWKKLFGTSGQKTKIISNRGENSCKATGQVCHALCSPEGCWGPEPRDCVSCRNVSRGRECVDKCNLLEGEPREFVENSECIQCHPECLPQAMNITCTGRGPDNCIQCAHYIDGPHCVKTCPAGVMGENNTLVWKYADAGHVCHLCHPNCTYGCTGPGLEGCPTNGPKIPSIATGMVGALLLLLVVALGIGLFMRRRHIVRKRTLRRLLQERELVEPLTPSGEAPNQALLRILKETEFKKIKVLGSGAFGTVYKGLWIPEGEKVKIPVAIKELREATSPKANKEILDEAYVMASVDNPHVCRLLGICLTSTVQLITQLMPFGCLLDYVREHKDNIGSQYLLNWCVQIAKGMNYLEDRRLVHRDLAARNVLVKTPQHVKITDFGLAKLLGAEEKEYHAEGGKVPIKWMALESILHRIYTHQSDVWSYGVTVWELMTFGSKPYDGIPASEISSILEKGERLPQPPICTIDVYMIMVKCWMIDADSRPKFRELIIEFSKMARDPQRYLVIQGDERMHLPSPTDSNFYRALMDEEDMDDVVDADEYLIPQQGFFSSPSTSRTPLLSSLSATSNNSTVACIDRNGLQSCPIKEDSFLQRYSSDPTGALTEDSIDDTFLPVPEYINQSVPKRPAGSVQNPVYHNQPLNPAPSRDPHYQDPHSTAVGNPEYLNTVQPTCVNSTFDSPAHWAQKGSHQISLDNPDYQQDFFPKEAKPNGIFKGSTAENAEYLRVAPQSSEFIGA
# Experimental Protocol: Inhibition of human EGFR in presence of 1 uM ATP

**Q:** Report IC50 for `COCCOc1cc2ncnc(NC3=CC(=O)C(OCc4ccccc4)=CC3=O)c2cc1OC` please.
**A:** > 10 µM

**Q:** Same question, `COCCOc1cc2ncnc(NC3=CC(=O)C(OCc4cccc(F)c4)=CC3=O)c2cc1OC` this time
**A:** > 10 µM

**Q:** Same question, `CN(C)C/C=C/C(=O)Nc1ccc2ncnc(Nc3ccc(Br)cc3F)c2c1` this time
**A:** < 0.01 µM
